- protocol: Hydrolysis (deprotection) rate of protected triazabutadienes
- Format: physicochemical
- assay-context: relative to ethyl carbamate 7, FIG. 8G
property-name: Effect of substituent on rate of deprotection / hydrolysis

{"molecule": "CCOC(=O)N(N=Nc1n(-c2c(C)cc(C)cc2C)cc[n+]1-c1c(C)cc(C)cc1C)c1ccc([N+](=O)[O-])cc1.[Cl-] [Compound 11]", "measured": "slowed hydrolysis"}
{"molecule": "Cc1cc(C)c(-n2cc[n+](-c3c(C)cc(C)cc3C)c2N=NN(C(=O)OC(C)C)c2ccccc2)c(C)c1.[Cl-] [Compound 13]", "measured": "small change in rate"}
{"molecule": "Cc1cc(C)c(-n2cc[n+](-c3c(C)cc(C)cc3C)c2N=NN(C(=O)OCC(C)(C)C)c2ccccc2)c(C)c1.[Cl-] [Compound 12]", "measured": "small change in rate"}
{"molecule": "CCOC(=O)N(N=Nc1n(-c2c(C)cc(C)cc2C)cc[n+]1-c1c(C)cc(C)cc1C)c1ccc(C(F)(F)F)cc1.[Cl-] [Compound 10]", "measured": "slowed hydrolysis"}

----------
- protocol: Decomposition in D2O / buffers followed by NMR
- Format: physicochemical
- assay-context: D2O, in the dark, NMR
Each entry below lists one item and its recorded Compound consumed after 24 hours value.

{"compound": "CC(C)(C)n1ccn(CCCS(=O)(=O)O)c1=NN=Nc1ccccc1 [Compound 6b]", "Compound consumed after 24 hours / %": 50}
{"compound": "Cn1ccn(CCCS(=O)(=O)O)c1=NN=Nc1ccccc1 [Compound 6a]", "Compound consumed after 24 hours / %": 50}
{"compound": "COc1ccc(N=NN=c2n(CCCS(=O)(=O)[O-])ccn2-c2c(C)cc(C)cc2C)cc1.[K+] [Compound 6d]", "Compound consumed after 24 hours / %": 26}
